Kindly supply the reported IC50 values for the records listed here.
Test system: Poly/Mono-ADP Ribose in U2OS cells
Test: PAR in cell western assay (parylation) in U2OS cells
Assay type: cell-based
Settings: Homo sapiens; U2OS cells, 6 hrs, 2 mM H2O2; read-out: Parylation (U2OS)

Input line: Reported IC50, compound `CC1(C(=O)N2CCC(c3cccc(C(=O)N[C@@H](C(=O)N4CCC(OC5CCN(CC(=O)N6CCN(C(=O)c7cc(Cc8n[nH]c(=O)c9ccccc89)ccc7F)CC6)CC5)CC4)C4CCCCC4)c3F)CC2)CC1` : ____
Output line: 10 to 100 nM

Input line: I am curious: what IC50 value has been reported for `CCc1cccc(-c2cnc(C(=O)NC34CCC(CN5CCN(CC(=O)N6CCN(C(=O)c7cc(Cc8n[nH]c(=O)c9ccccc89)ccc7F)CC6)CC5)(CC3)OC4)c(NC(=O)OC(C)(C)C)c2)c1` ?
Output line: 100 to 1000 nM

Input line: What IC50 value was documented for this compound, `CCc1cccc(-c2cnc(C(=O)NCCOCCNCC(=O)N3CCN(C(=O)c4cc(Cc5n[nH]c(=O)c6ccccc56)ccc4F)CC3)c(NC(C)=O)c2)c1` ?
Output line: 10 to 100 nM

====

Task for the reader: assign each of the following compounds its reported IC50.
System: Poly/Mono-ADP Ribose in U2OS cells
Experiment: PAR in cell western assay (parylation) in U2OS cells
Type: cell-based
Details: Homo sapiens; U2OS cells, 6 hrs, 2 mM H2O2; read-out: Parylation (U2OS)
Method: U2OS cells are seeded at 2667 cells per well in 24 ul medium into poly-D lysine-coated 384 well plate and incubated in the TC incubator for O/N […] Next Day, cells are washed and incubated with anti-Rabbit 800CV (Licor antibody, 1:500) and CellTag 700 (Licor, 1:800) in 1×PBS/1% BSA/0.05% Tween for 1 h. After washing, plates are scanned using LICOR and are quantified. […]

Input line: Recorded IC50 for `CC(C)(C)OC(=O)N[C@@H](C(=O)N1CCC(C)(OC2CCN(CC(=O)N3CCN(C(=O)c4cc(Cc5n[nH]c(=O)c6ccccc56)ccc4F)CC3)CC2)CC1)C1CCCCC1` with Poly/Mono-ADP Ribose in U2OS cells, please?
Output line: 10 to 100 nM

Input line: // map O=C(N[C@@H](C(=O)N1CCN(CC2CCN(CC(=O)N3CCN(C(=O)c4cc(Cc5n[nH]c(=O)c6ccccc56)ccc4F)CC3)CC2)CC1)C1CCCCC1)c1cccc(C2CCCN(C(=O)COC3CC3)C2)c1 (stereo partly drawn) to recorded IC50 (system: Poly/Mono-ADP Ribose in U2OS cells)
Output line: 100 to 1000 nM

Input line: What is its IC50 for Poly/Mono-ADP Ribose in U2OS cells? Entry: `CCc1cccc(-c2cnc(C(=O)NC34CCC(CN5CCN(CC(=O)N6CCN(C(=O)c7cc(Cc8n[nH]c(=O)c9ccccc89)ccc7F)CC6)CC5)(CC3)OC4)c(N)c2)c1`
Output line: 100 to 1000 nM

====

Molecular target: PARP1 (Homo sapiens, UniProt P09874)
Sequence (P09874 whole entry): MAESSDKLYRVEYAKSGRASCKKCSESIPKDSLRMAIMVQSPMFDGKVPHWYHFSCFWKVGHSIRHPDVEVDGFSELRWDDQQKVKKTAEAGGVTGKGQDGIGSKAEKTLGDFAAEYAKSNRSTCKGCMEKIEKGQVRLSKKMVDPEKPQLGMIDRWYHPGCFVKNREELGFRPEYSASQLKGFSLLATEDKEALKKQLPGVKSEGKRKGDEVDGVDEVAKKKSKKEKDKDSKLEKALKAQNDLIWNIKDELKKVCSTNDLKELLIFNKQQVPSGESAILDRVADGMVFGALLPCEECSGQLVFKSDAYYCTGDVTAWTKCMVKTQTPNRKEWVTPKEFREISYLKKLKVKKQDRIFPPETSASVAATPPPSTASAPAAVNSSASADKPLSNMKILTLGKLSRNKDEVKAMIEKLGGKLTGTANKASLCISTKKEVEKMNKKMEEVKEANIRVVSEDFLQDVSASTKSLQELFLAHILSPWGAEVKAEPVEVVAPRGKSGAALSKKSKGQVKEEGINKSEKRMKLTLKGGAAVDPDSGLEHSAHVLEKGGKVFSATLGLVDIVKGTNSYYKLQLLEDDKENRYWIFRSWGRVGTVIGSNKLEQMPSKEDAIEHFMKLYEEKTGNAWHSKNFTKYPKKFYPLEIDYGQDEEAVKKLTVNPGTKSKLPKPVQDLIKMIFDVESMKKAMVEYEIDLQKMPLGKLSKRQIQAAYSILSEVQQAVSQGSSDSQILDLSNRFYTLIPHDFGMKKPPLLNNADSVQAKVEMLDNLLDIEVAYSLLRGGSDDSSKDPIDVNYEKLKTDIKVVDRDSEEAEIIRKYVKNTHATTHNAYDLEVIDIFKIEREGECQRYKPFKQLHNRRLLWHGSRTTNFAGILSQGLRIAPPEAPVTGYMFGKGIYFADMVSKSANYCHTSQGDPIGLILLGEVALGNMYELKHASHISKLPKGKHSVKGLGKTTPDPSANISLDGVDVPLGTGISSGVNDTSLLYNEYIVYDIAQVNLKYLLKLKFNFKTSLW
Assay: PARP trapping assay in U2OS cells
Type: cell-based
Design: endogenous in cells; host or cells: U2OS
Settings: U2OS cells, MMS, 4 hrs; read-out: PARP Trapping (U2OS)
pIC50: −log10 of the molar value.
Provide the reported pIC50 of each item.

Input line: Request body: readout pIC50, system PARP1 (Homo sapiens, UniProt P09874), query O=C(N[C@@H](C(=O)N1CCN(CC(=O)N2CCN(C(=O)c3cc(Cc4n[nH]c(=O)c5ccccc45)ccc3F)CC2)CC1)C1CCCCC1)c1cccc(C2CCCN(C(=O)C3CC3)C2)c1F (stereo partly shown) . Return the value.
Output line: 6.00 to 7.00

Input line: Form field: pIC50 recorded for CC1(C)CC(c2ccc(C(=O)N[C@@H](C(=O)N3CCC(OC4CCN(CC(=O)N5CCN(C(=O)c6cc(Cc7n[nH]c(=O)c8ccccc78)ccc6F)CC5)CC4)CC3)C3CCCCC3)c(F)c2)CCN1C(=O)C1CC1 (stereo partly shown) with PARP1 (Homo sapiens, UniProt P09874) (enter value)
Output line: 7.00 to 8.00

Input line: What is its pIC50 for PARP1 (Homo sapiens, UniProt P09874)? Entry: `CC(C)(C)OC(=O)N[C@@H](C(=O)N1CCC(C)(OC2CCN(CC(=O)N3CCN(C(=O)c4cc(Cc5n[nH]c(=O)c6ccccc56)ccc4F)CC3)CC2)CC1)C1CCCCC1`
Output line: 7.00 to 8.00

Input line: Query pIC50 on PARP1 (Homo sapiens, UniProt P09874) for `CCc1cccc(-c2cnc(C(=O)NC34CCC(CN5CCN(CC(=O)N6CCN(C(=O)c7cc(Cc8n[nH]c(=O)c9ccccc89)ccc7F)CC6)CC5)(CC3)OC4)c(NC(=O)OC(C)(C)C)c2)c1`
Output line: 7.00 to 8.00

Input line: What is its pIC50 for PARP1 (Homo sapiens, UniProt P09874)? Entry: `CCc1cccc(-c2cnc(C(=O)NC34CCC(CN5CCN(CC(=O)N6CCN(C(=O)c7cc(Cc8n[nH]c(=O)c9ccccc89)ccc7F)CC6)CC5)(CC3)OC4)c(NC(C)=O)c2)c1`
Output line: 7.00 to 8.00

Input line: Record lookup: for PARP1 (Homo sapiens, UniProt P09874), what pIC50 belongs to CC(C)(C)OC(=O)N1CCCC(c2cccc(Oc3cnnc(N4CCC(OC5CCN(CC(=O)N6CCN(C(=O)c7cc(Cc8n[nH]c(=O)c9ccccc89)ccc7F)CC6)CC5)CC4)c3)c2)C1 (stereo not shown) ?
Output line: 7.00 to 8.00

Input line: Identify the measured pIC50 of CC(C)(C)C(=O)N1CCC[C@@H](c2cccc(C(=O)N[C@@H](C(=O)N3C4CCC3CC(OC3CCN(CC(=O)N5CCN(C(=O)c6cc(Cc7n[nH]c(=O)c8ccccc78)ccc6F)CC5)CC3)C4)C3CCCCC3)c2F)C1 (stereo partly shown) for PARP1 (Homo sapiens, UniProt P09874).
Output line: 7.00 to 8.00

Input line: Item: `CCc1cccc(-c2cnc(C(=O)N3CCC(CC(=O)N4CCN(C(=O)c5cc(Cc6n[nH]c(=O)c7ccccc67)ccc5F)CC4)CC3)c(NC(=O)CNCc3cccc(C)c3)c2)c1` Test system: PARP1 (Homo sapiens, UniProt P09874) Read-out: pIC50 Value: ?
Output line: 7.00 to 8.00

Input line: Hello, I am looking for reported pIC50 with PARP1 (Homo sapiens, UniProt P09874) for O=C(N[C@@H](C(=O)N1CCC(OC2CCN(CC(=O)N3CCN(C(=O)c4cc(Cc5n[nH]c(=O)c6ccccc56)ccc4F)CC3)CC2)CC1)C1CCCCC1)c1cccc(C2CCCN(C(=O)C34CC(C3)C4)C2)c1F (stereo partly shown) . Could you help?
Output line: 7.00 to 8.00

Input line: Item `O=C(N[C@@H](C(=O)N1CCN(CC2CCN(CC(=O)N3CCN(C(=O)c4cc(Cc5n[nH]c(=O)c6ccccc56)ccc4F)CC3)CC2)CC1)C1CCCCC1)c1cccc([C@H]2CCCN(C(=O)CNCc3ccc(F)cc3F)C2)c1` with PARP1 (Homo sapiens, UniProt P09874) - pIC50?
Output line: 6.00 to 7.00

Input line: Give the reported pIC50 for Cc1sc(CN2CCCC2c2nnc3n2CCCCC3)nc1C12CC(C(=O)NCCOCCOCCOCCNCC(=O)N3CCN(C(=O)c4cc(Cc5n[nH]c(=O)c6ccccc56)ccc4F)CC3)(C1)C2 (stereo not shown) (system: PARP1 (Homo sapiens, UniProt P09874)).
Output line: < 5.00

Input line: I'm curious: which pIC50 was measured for CC(C)(F)C(=O)N1CCCC(c2cccc(C(=O)N[C@@H](C(=O)N3CCN(CC4CCN(CC(=O)N5CCN(C(=O)c6cc(Cc7n[nH]c(=O)c8ccccc78)ccc6F)CC5)CC4)CC3)C3CCCCC3)c2)C1 (stereo partly shown) tested on PARP1 (Homo sapiens, UniProt P09874)?
Output line: 6.00 to 7.00

Input line: Provide the documented pIC50 with PARP1 (Homo sapiens, UniProt P09874) as the system for O=C(NC(C(=O)N1CCC(OC2CCN(CC(=O)N3CCN(C(=O)c4cc(Cc5n[nH]c(=O)c6ccccc56)ccc4F)CC3)CC2)CC1)C1CCCCC1)c1cccc(C2CCCN(C(=O)CNCc3ccc(F)cc3F)C2)c1 (stereo not shown)
Output line: 6.00 to 7.00

Input line: State its pIC50 on PARP1 (Homo sapiens, UniProt P09874): `CCc1cccc(-c2cc(F)c(C(=O)N3CCC(OC4CCN(CC(=O)N5CCN(C(=O)c6cc(Cc7n[nH]c(=O)c8ccccc78)ccc6F)CC5)CC4)CC3)c(F)c2)c1`
Output line: 7.00 to 8.00

Input line: # value lookup — system PARP1 (Homo sapiens, UniProt P09874), readout pIC50, item O=C(N[C@@H](C(=O)N1CCN(CC2CCN(CC(=O)N3CCN(C(=O)c4cc(Cc5n[nH]c(=O)c6ccccc56)ccc4F)CC3)CC2)CC1)C1CCCCC1)c1cccc(C2CCCN(C(=O)C3CC3)C2)c1 (stereo partly shown)
Output line: 6.00 to 7.00

Input line: API: value(readout= pIC50, system= PARP1 (Homo sapiens, UniProt P09874), query= CC1(OC2CCN(CC(=O)N3CCN(C(=O)c4cc(Cc5n[nH]c(=O)c6ccccc56)ccc4F)CC3)CC2)CCN(C(=O)[C@H](NC(=O)c2cccc(C3CCCN(C(=O)C45CC(C4)C5)C3)c2F)C2CCCCC2)CC1 (stereo partly shown) )
Output line: 7.00 to 8.00

Input line: For the record CCc1cccc(-c2cc(F)c(C(=O)N3CC4CCC3CC4CN3CCN(CC(=O)N4CCN(C(=O)c5cc(Cc6n[nH]c(=O)c7ccccc67)ccc5F)CC4)CC3)c(F)c2)c1 (stereo not shown) , what value of pIC50 is listed for PARP1 (Homo sapiens, UniProt P09874)?
Output line: 7.00 to 8.00

Input line: Form: Entry = `O=C(CN1CCC(OC2CCN(C(=O)c3c(F)cc(-c4ccncc4)cc3F)CC2)CC1)N1CCN(C(=O)c2cc(Cc3n[nH]c(=O)c4ccccc34)ccc2F)CC1` | System = PARP1 (Homo sapiens, UniProt P09874) | pIC50 = ____
Output line: > 8.00

Input line: PARP1 (Homo sapiens, UniProt P09874) / pIC50 / `CCc1cccc(-c2cnc(C(=O)N3CCC(CN4CCN(CC(=O)N5CCN(C(=O)c6cc(Cc7n[nH]c(=O)c8ccccc78)ccc6F)CC5)CC4)CC3)c(C#N)c2)c1` : value?
Output line: 6.00 to 7.00
